# measured.on: ML/X-IAP chimera MLXBIR3SG (Homo sapiens, UniProt Q96CA5, S150G)
# Sequence (Q96CA5 with tags, fused parts or gaps S150G): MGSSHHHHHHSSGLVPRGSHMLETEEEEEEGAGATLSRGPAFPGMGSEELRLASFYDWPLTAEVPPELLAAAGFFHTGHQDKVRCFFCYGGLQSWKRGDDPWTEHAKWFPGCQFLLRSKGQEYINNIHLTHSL
# experiment.summary: Fluorescence polarization peptide binding assay, MLXBIR3SG
# applied.conditions: determined from the IC50 values (procedure of Keating et al.)
# label = y if Ki < 1000 nM else n

Worked examples follow.
compound | class
CN[C@@H](C)C(=O)N[C@H](C(=O)N(C)[C@H](C(=O)Nc1snnc1-c1ccccc1)C(C)(C)C)C1CCCCC1 [Compound 24] | y
CN[C@@H](C)C(=O)N[C@H](C(=O)N[C@H](C(=O)Nc1snnc1-c1ccccc1)C(C)(C)SC)C1CCCCC1 [Compound 20] | y
CN[C@@H](C)C(=O)N[C@H](C(=O)N[C@H](C(=O)Nc1sc(-c2cnccn2)nc1-c1ccccc1)C(C)(C)C)c1ccccc1 [Compound 11] | n
CN[C@@H](C)C(=O)N[C@H](C(=O)N[C@H](c1nc(-c2ccc(F)c3ccccc23)cs1)C(C)(C)SCc1ccc(OC)cc1)C1CCCCC1 [Compound 22] | n
CN[C@@H](C)C(=O)N[C@H](C(=O)N(C)[C@H](C(=O)Nc1snnc1-c1ccccc1)C(C)(C)SC)C1CCCCC1 [Compound 23] | y

Hi there! Is Ki for CN[C@@H](C)C(=O)N[C@H](C(=O)N[C@H](C(=O)NCC(c1ccccc1)c1ccccc1)C(C)(C)SCc1ccc(OC)cc1)C1CCCCC1 [Compound 17] below 1000 nM, do you know?
n
